# tgt: T1, PPR2.0 t3 (synthetic)
# T1 chain: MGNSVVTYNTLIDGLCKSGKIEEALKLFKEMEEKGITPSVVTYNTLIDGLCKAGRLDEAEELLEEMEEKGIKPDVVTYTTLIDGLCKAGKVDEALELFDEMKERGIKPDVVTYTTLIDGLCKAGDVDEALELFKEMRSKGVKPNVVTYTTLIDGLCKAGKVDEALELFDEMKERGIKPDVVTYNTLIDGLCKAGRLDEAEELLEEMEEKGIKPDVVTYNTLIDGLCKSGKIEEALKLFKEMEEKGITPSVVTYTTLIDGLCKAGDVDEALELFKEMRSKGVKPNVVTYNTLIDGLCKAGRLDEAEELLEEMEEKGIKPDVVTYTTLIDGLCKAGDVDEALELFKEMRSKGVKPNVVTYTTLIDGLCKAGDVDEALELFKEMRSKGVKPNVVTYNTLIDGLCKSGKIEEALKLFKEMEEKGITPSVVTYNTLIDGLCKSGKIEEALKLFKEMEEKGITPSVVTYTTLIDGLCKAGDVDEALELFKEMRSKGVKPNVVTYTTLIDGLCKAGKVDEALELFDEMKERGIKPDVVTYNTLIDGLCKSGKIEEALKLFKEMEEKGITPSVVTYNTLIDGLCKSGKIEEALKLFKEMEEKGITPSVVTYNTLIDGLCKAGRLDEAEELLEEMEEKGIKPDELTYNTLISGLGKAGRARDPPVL
# test-protocol: EMSA; 20 mM Tris-HCl pH 8.0, 150 mM NaCl, 0.5% NP-40, 1 mM DTT, 1 mM EDTA; 20 nM RNA
# stated-conditions: tags: N-terminal SBP, C-terminal His6, kept; label: biotin
experimental-endpoint: Kd (µM)

• GACAUGCCUGAGUCAUAACCAGCCUGACUG (ssRNA) [Probe_t3] = 0.0592
